target: L-type voltage-gated Ca2+ channel (TcL-VGCC) (Tetranychus cinnabarinus); assay: voltage-clamp whole-cell current recording in Xenopus oocytes
PROPERTY: EC50 (µM)

MOLECULE: COc1cc2ccc(=O)oc2cc1OC [compound 1, scoparone]
OUTPUT_UNIT: µM
VALUE_REPORTED: 5.54
